# System: NSCLC A549 cells
# assay_summary: MTS/PMS cell viability, A549
# Assay type: cell-based, human
# test_parameters: Homo sapiens, A549; 24 h, MTS/PMS
# Experimental: A similar procedure was performed to determine the IC50 of the triterpenes in a normal lung fibroblast cell line (MRC5). In brief, the A549 and MRC5 cells were seeded into 96-well plates at a density of 1 × 10^5 cells/mL in supplemented DMEM medium. […] After incubation, the absorbance was measured at 492 nm (n = 8) in a microplate reader spectrophotometer (Thermoscientific Multiskan FC). […]
assay_metric: pIC50
Scale explanation: pIC50 corresponds to minus log10 of a concentration expressed in moles per litre.

*Q* # value lookup — system NSCLC A549 cells, readout pIC50, item C=C(C)[C@@H]1CC[C@]2(CO)CC[C@]3(C)[C@H](CC[C@@H]4[C@@]5(C)CC[C@H](O)C(C)(C)[C@@H]5CC[C@]43C)[C@@H]12 [Betu, betulin]
*A* 4.66
